Assay: Permeability in CALU-3 cells
Type: in vitro ADME
Settings: human; apical-to-basal, CALU-3 monolayers, pH 7.4, 37° C., 10 μM compound

- structure-smiles: "CCOP(=O)([O-])CCCn1c(CNC(=O)c2nc(Cl)c(N)nc2N)[n+](CC)c2cc(OC)ccc21"
  Papp A→B: "0.17 ×10⁻⁶ cm/s"

Hello, the source for this data is patent US9328131B2, in case you need it.
